tested on: SW-620 colon; assay: NCI tumour cell line growth inhibition, 48 h
propertyName: GI50

Enquiry: Which GI50 is reported for this compound? O=C(COc1cccc(/C=C2\CSc3ccccc3C2=O)c1)Nc1nccs1
Return: 1950 nM

Enquiry: What does the record list as GI50 for CCN1CCN(C(=O)[C@]23CCC(C)(C)C[C@@H]2C2=CC[C@@H]4[C@@]5(C)C/C(=C/c6ccncc6)C(=O)C(C)(C)[C@@H]5CC[C@@]4(C)[C@]2(C)CC3)CC1 ?
Return: 1480 nM

Enquiry: Fill in the blank: the reported GI50 of COc1cc2c3c(n(C)c(=O)c2cc1OC)-c1ccc(C#N)cc1C3=O is ____.
Return: > 100000 nM

Enquiry: GI50 for O=[N+]([O-])c1cccc(C2CC(c3ccccc3)=Nc3ccccc3S2)c1 (stereo not given) ?
Return: 3030 nM

Enquiry: Fill in the blank: the reported GI50 of O=C(CN1C(=O)S/C(=C\C(Cl)=C\c2ccccc2)C1=O)NC1C=CS(=O)(=O)C1 (stereo not given) is ____.
Return: 553 nM

Enquiry: Can you share its GI50? I mean this compound: CC1=C(Nc2ccc(N3CCN(C)CC3)cc2)C(=O)c2cncnc2C1=O
Return: 2540 nM

Enquiry: Recorded GI50 of CC(=O)[O][Hg][c]1c(C)c(C)cc(C)c1C , please.
Return: 732 nM

Enquiry: Entry CN1CCN(CCCOc2cccc3nc(Nc4ccc(Cl)c(C(F)(F)F)c4)ccc23)CC1 has what GI50?
Return: 1890 nM

Enquiry: Reported GI50, compound COc1cc2nc3cc([N+](=O)[O-])ccc3c(NCCNCC(C)(C)O)c2cc1OC : ____
Return: 540 nM

Enquiry: Requested read-out: GI50. Entry: C=CC(=O)N1CC2(CC(n3nc(-c4ccc5c(cnn5C)c4)c(-c4c(Cl)c(C)cc5[nH]ncc45)c3C)C2)C1
Return: 3230 nM
